Test system: NCI-H23
assay_info: NCI tumour cell line growth inhibition, 48 h
The source made the active and inactive calls. Rule as the data show it: active = GI50 up to about 1.1 µM and inactive = higher.
measured_property: GI50

## Input // lookup GI50 for CCC1c2[nH]c3ccccc3c2C[C@H]2C(=O)NC(COC(C)(C)C)C(=O)N12 (some centres undefined)
## Output 32.9 µM (inactive)

## Input // next record COCC(OC)C(CC=C(C#N)C#N)OC (centres undefined)
## Output > 100 µM (inactive)

## Input // next record COc1ccc(C2=NNC(=O)c3ccccc3N2c2nc(-c3cccs3)nc3cc(OC)c(OC)cc23)cc1
## Output 7.13 µM (inactive)

## Input // next record CC1(C)C(C#N)=[N+]([O-])C(C)(C)N1O
## Output > 100 µM (inactive)

## Input // next record O=[N+]([O-])c1cnccc1-n1nnc2ccccc21
## Output 18.2 µM (inactive)

## Input // next record Cn1cc(NC(=O)c2cc(NC(=O)CCCCCC(=O)Nc3cc(C(=O)Nc4cc(C(=O)NCCC(=N)N)n(C)c4)n(C)c3)cn2C)cc1C(=O)NCCC(=N)N
## Output > 100 µM (inactive)

## Input // next record Fc1cc(-c2cc(-c3ccc4c(c3)OCO4)n[nH]2)c(Cl)cc1Cl
## Output 2.47 µM (inactive)

## Input // next record O=C(O)/C(Cc1c[nH]nn1)=N\O
## Output > 100 µM (inactive)

## Input // next record CC(C)(O)[C@@H]1CCC(C)([C@H]2[C@@H](O)CC3(C)C4CC(OC5OC(CO)C(O)C(O)C5O)C5C(C)(C)[C@@H](OC6OCC(O)C(O)C6O)CC[C@@]56C[C@@]46CC[C@]23C)O1 (some centres undefined)
## Output > 100 µM (inactive)

## Input // next record COc1ccc(C2=C(Cl)C(=O)N(c3ccc(OC)cc3OC)C(=O)C2(Cl)Cl)cc1
## Output 15.4 µM (inactive)

## Input // next record O=C(O)CCc1ccc2c(c1)CC1(Cc3ccccc3C1)C2
## Output > 100 µM (inactive)

## Input // next record O=[N+]([O-])c1ccc2c(c1)C1=NN(c3ccccc3)C(c3ccccc3Br)C1CCC2 (centres undefined)
## Output 18.7 µM (inactive)

## Input // next record CC(C)C(=O)[C@@]1(C)SC[C@H]2CCN=C21
## Output > 100 µM (inactive)

## Input // next record C#CC1(O)c2ccccc2C(=O)c2ccccc21
## Output > 100 µM (inactive)

## Input // next record CC(=O)Oc1ccc2c(c1)CC[C@@H]1C2[C@@H](O[N+](=O)[O-])C[C@@]2(C)C1CC[C@@H]2O[N+](=O)[O-] (some centres undefined)
## Output 12.7 µM (inactive)

## Input // next record Cc1ccc(C(=O)C(C2=Nc3nnc(N)n3C2=O)C2=Nc3nnc(N)n3C2=O)cc1
## Output > 100 µM (inactive)

## Input // next record Cc1cc(C)nc(NS(=O)(=O)c2ccc(NC(=O)c3ccc4nc5ccccc5c(Nc5ccc(S(=O)(=O)Nc6nc(C)cc(C)n6)cc5)c4c3)cc2)n1
## Output 34 µM (inactive)

## Input // next record O=C(Nc1cnc(O)nc1O)C(Cl)Cl
## Output > 100 µM (inactive)

## Input // next record COc1ccc2c(c1)CC[C@@H]1C2CC[C@]2(C)C(=O)N(CCN3CCCCC3)C(=O)CC12 (some centres undefined)
## Output > 100 µM (inactive)
